- System: Vero E6 infected with SARS-CoV-2
- ASSAY_SUMMARY: inhibition of SARS-CoV-2 cytopathic effect; higher = more antiviral protection, active = above 15
- EXPERIMENTAL_CONTEXT: 1 nM; 48 h
MEASURED_QUANTITY: inhibition of SARS-CoV-2 cytopathic effect (%)
Express the result in % but write the number alone.

>  <COMPOUND>
c1ccc(CCNc2nc(-c3ccccc3)cs2)cc1 [fanetizole]

>  <TEST_TARGET>
Vero E6 infected with SARS-CoV-2

>  <MEASURED_VALUE>
-2.03

$$$$
>  <COMPOUND>
c1ccc2cc(C3=NCCN3)ncc2c1

>  <TEST_TARGET>
Vero E6 infected with SARS-CoV-2

>  <MEASURED_VALUE>
1.6

$$$$
>  <COMPOUND>
CC1(C)[C@@H](OC(=O)CCC(=O)O)CC[C@]2(C)[C@H]3C(=O)C=C4[C@@H]5C[C@@](C)(C(=O)O)CC[C@]5(C)CC[C@@]4(C)[C@]3(C)CC[C@@H]12

>  <TEST_TARGET>
Vero E6 infected with SARS-CoV-2

>  <MEASURED_VALUE>
0.51

$$$$

Now for the compound whose inhibition of SARS-CoV-2 cytopathic effect we want.
Give the measured inhibition of SARS-CoV-2 cytopathic effect of O=C1N[C@@H]2[C@@H](O)[C@@H](O)[C@H](O)[C@@H](CO)N2C1=O [kifunensine] . 0.31

---

Parameter: inhibition of SARS-CoV-2 cytopathic effect. Scope: all listed entries.
- Tested on: Vero E6 infected with SARS-CoV-2
- ASSAY_SUMMARY: inhibition of SARS-CoV-2 cytopathic effect; higher = more antiviral protection, active = above 15
- EXPERIMENTAL_CONTEXT: 8.33 nM; 48 h
Express the result in % but write the number alone.

The cases that follow already have their inhibition of SARS-CoV-2 cytopathic effect on record.
>  <COMPOUND>
COc1ccc(OC)c2c(=S)c3ccccc3[nH]c12

>  <MEASURED_VALUE>
4.64

$$$$
>  <COMPOUND>
CC(C)Cc1ccc([C@@H](C)C(=O)NS(C)(=O)=O)cc1 [reparixin]

>  <MEASURED_VALUE>
3.05

$$$$

Now for the compound whose inhibition of SARS-CoV-2 cytopathic effect we want.
Give the measured inhibition of SARS-CoV-2 cytopathic effect of CNC(=O)c1ccc2c(c1)S(=O)(=O)c1ccccc1C2=O . 0.66

---

- Tested on: Vero E6 infected with SARS-CoV-2
- ASSAY_SUMMARY: morphology score (similarity to uninfected cells); higher = more like uninfected cells
- EXPERIMENTAL_CONTEXT: 24 h
MEASURED_QUANTITY: morphology score
Lab note: write the figure by itself, no unit.

>  <MOLECULE>
c1ccc(C2CN3CCSC3=N2)cc1 (configuration not stated) [tetramisole] (10 µM)

>  <morphology score>
0.191

$$$$

Give the measured morphology score of Nc1n[nH]c2nnc(-c3c(-c4ccccc4)nn4ccccc34)cc12 (10 µM) . 0.264

Give the measured morphology score of O=C(O)c1cc(/N=N/c2ccc(S(=O)(=O)Nc3ccccn3)cc2)ccc1O [sulfasalazine] (10 µM) . 0.0447

---

- Test system: Vero E6 infected with SARS-CoV-2
- ASSAY_SUMMARY: inhibition of SARS-CoV-2 cytopathic effect; higher = more antiviral protection, active = above 15
- EXPERIMENTAL_CONTEXT: 100 nM; 48 h
MEASURED_QUANTITY: inhibition of SARS-CoV-2 cytopathic effect (%)
Express the result in % but write the number alone.

>  <MOLECULE>
CN(C)CCCSC(=N)N

>  <TEST_TARGET>
Vero E6 infected with SARS-CoV-2

>  <MEASURED_VALUE>
-0.82

$$$$

Give the measured inhibition of SARS-CoV-2 cytopathic effect of CC1(C)OC(=O)C(OCC2CC2)=C1c1ccc(S(C)(=O)=O)cc1 . 0.34
